Target: T1, B3GNT2 (Homo sapiens, UniProt Q9NY97)
T1 construct: The respective ORFs of candidate genes [CD274 (NM_014143), MCL1 (NM_021960), JUNB (NM_002229), and B3GNT2 (NM_006577)] were synthesized; expressed in transfected cells; host or cells: A375 melanoma cells (lentiviral ORF overexpression)
T1 sequence (Q9NY97 1-397): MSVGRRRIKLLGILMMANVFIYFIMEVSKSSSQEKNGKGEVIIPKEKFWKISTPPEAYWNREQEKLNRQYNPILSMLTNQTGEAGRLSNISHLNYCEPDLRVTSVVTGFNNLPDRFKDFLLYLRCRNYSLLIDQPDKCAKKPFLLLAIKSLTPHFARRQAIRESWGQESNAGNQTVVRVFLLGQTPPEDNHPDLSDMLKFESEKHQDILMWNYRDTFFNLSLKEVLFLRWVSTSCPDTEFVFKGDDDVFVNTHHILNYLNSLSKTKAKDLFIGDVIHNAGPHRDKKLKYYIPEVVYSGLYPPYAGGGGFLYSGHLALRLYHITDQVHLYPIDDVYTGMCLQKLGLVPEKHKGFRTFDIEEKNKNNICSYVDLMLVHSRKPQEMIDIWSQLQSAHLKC
Assay: Co-IP of FLAG-tagged B3GNT2 followed by mass spectrometry
Type: cell-based
Conditions: Co-IP followed by mass spectrometry of B3GNT2; N-term tag, IgG pull-down
measured-metric: N-term IgG
Please give only the number in your answer, with no unit.

Per the record, LSM12 (protein) AAPPGEYFSVGSQVSCRTCQEQRLQGEVVAFDYQSKMLALKCPSSSGKPNHADILLINLQYVSEVEIINDRTETPPPLASLNVSKLASKARTEKEEKLSQAYAISAGVSLEGQQLFQTIHKTIKDCKWQEKNIVVMEEVVITPPYQVENCKGKEGSALSHVRKIVEKHFRDVESQKILQRSQAQQPQKEAALSS has N-term IgG of 2

GET /value?item= KCTD5 (protein) AENHCELLSPARGGIGAGLGGGLCRRCSAGLGALAQRPGSVSKWVRLNVGGTYFLTTRQTLCRDPKSFLYRLCQADPDLDSDKDETGAYLIDRDPTYFGPVLNYLRHGKLVINKDLAEEGVLEEAEFYNITSLIKLVKDKIRERDSKTSQVPVKHVYRVLQCQEEELTQMVSTMSDGWKFEQLVSIGSSYNYGNEDQAEFLCVVSKELHNTPYGTASEPSEKAKILQERGSRM &field=N-term IgG returns 0

Record summary for TXN (protein) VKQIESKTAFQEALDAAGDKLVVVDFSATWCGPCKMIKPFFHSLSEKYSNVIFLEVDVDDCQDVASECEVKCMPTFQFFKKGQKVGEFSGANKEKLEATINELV : reported N-term IgG = 3
